Known fraction unbound of a selection of compounds
- PROCEDURE SUMMARY: Plasma protein binding, human
- Assay type: in vitro ADME
- TEST CONTEXT: read-out: PPB % (Human) (converted)
Note: the reply should be a number with no unit written.

{"COMPOUND": "CC(C)(C)NC(=O)CN1CCC2(CC1)CC2NC(=O)c1cc(F)cc(Cl)c1 (single isomer, unassigned)", "NUMERIC READOUT": 0.043}

Annotate the compound CC(C)(C)NC(=O)CN1CCC(CNC(=O)c2cc(F)cc(Cl)c2)CC1 [Z944, reference compound] with its measured fraction unbound.
0.064

Annotate the compound CC(C)(C)CCN1C[C@@H]2[C@@H](CNC(=O)c3cc(Cl)cc(Cl)c3)[C@@H]2C1 [ML218, reference compound] with its measured fraction unbound.
0.046

====

Known inhibition at 1 µM of a selection of compounds
- MEASURED TARGET: Cav3.2 channel (Homo sapiens)
- Construct: expressed in transfected cells; host or cells: HEK-293, tetracycline inducible expression system (Invitrogen)
- Sequence (O95180 whole entry): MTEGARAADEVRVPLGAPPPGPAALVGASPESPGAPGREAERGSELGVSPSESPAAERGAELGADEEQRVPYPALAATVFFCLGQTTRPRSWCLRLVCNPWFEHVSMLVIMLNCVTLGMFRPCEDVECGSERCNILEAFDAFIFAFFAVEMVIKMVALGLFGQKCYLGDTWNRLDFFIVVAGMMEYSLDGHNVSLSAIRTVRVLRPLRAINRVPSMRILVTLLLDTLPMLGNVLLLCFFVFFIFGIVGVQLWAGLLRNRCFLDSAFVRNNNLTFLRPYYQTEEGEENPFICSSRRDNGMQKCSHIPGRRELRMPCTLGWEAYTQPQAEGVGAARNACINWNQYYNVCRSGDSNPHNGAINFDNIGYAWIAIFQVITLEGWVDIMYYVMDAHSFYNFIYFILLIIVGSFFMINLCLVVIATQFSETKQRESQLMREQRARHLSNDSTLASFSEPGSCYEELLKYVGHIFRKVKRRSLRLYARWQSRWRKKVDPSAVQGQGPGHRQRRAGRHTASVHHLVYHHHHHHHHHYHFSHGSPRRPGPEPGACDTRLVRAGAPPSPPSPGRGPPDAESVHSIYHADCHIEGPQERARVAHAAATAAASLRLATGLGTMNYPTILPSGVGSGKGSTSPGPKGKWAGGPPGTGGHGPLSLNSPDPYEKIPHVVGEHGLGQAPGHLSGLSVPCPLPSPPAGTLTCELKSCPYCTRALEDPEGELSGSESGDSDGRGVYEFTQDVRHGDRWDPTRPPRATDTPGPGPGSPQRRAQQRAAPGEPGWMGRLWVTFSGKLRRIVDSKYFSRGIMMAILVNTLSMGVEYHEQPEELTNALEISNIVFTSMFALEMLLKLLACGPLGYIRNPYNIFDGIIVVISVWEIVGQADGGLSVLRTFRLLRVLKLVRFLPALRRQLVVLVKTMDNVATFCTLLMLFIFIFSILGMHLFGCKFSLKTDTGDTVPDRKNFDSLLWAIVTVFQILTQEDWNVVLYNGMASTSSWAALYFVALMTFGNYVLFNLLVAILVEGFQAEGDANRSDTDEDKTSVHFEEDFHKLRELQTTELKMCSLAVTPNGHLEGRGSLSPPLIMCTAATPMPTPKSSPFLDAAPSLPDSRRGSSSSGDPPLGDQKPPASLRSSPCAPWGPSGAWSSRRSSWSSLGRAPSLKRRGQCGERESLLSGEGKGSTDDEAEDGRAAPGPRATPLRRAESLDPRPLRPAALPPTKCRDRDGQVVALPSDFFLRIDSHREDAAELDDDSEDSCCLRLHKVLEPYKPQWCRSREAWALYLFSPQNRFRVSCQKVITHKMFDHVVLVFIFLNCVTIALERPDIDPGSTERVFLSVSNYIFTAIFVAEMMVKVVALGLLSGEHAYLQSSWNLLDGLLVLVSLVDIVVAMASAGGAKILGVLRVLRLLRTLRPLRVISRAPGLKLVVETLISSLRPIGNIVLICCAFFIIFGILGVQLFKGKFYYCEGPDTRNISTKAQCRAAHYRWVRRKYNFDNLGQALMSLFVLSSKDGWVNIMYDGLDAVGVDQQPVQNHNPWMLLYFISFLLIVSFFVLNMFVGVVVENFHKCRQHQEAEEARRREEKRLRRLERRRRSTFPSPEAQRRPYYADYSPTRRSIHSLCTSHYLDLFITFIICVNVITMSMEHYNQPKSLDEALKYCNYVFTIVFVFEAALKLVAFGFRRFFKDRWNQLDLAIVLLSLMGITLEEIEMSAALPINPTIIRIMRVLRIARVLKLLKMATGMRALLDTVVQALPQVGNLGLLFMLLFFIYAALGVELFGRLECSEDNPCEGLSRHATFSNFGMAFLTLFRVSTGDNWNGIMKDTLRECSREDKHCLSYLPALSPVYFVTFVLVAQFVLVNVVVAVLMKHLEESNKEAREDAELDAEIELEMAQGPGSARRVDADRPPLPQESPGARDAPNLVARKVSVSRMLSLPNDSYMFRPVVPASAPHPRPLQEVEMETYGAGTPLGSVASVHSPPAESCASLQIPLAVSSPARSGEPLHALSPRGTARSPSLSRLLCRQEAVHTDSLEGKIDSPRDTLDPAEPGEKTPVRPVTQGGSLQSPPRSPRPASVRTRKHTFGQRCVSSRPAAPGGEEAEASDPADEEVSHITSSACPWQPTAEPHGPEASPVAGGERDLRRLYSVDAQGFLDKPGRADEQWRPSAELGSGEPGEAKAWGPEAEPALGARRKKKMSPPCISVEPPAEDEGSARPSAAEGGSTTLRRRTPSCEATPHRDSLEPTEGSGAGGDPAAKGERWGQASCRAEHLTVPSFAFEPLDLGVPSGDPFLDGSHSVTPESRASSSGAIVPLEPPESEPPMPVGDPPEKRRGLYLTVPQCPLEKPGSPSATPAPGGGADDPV
- PROCEDURE SUMMARY: Whole-cell patch clamp of T-type Cav3.2 channel expressed in HEK293 cells
- Assay type: cell-based
- TEST CONTEXT: HEK293; Table 1 primary screening; 1 μM
# output: number + unit

Illustrative cases are given below, each with its answer.
{"COMPOUND": "Clc1cc(Cl)cc(NCC2CC23CCN(CCc2ccccc2)CC3)c1 (stereo not drawn) [Example 95]", "PROPERTY": "inhibition at 1 µM", "RESULT": "67%"}
{"COMPOUND": "O=C(CCc1ccc(Cl)c(Cl)c1)Nc1nnc(-c2ccc(Cl)s2)o1 [Example 120]", "PROPERTY": "inhibition at 1 µM", "RESULT": "9.2%"}
{"COMPOUND": "O=C(N[C@H]1CCC12CCN(CCc1ccccc1)CC2)c1ccccc1 [Example 112]", "PROPERTY": "inhibition at 1 µM", "RESULT": "24%"}
{"COMPOUND": "O=C(NCC1CCN(CCC2CC2)CC1)c1ccc(Cl)s1 [Example 97]", "PROPERTY": "inhibition at 1 µM", "RESULT": "33%"}
{"COMPOUND": "CC(C)(C)NC(=O)CN1CCC2(CC1)CC2NS(=O)(=O)c1cc(Cl)cc(Cl)c1 (stereo not drawn) [Example 53]", "PROPERTY": "inhibition at 1 µM", "RESULT": "25%"}

Annotate the compound O=C(Nc1nnc(-c2ccc(Cl)s2)o1)N1C(=O)c2cc(Cl)c(Cl)cc2C1=O [Example 116] with its measured inhibition at 1 µM.
10%

Annotate the compound CC(C)(C)CCN1CCC2(CC1)CC2NC(=O)c1ccc(Cl)cc1 (stereo not drawn) [Example 22] with its measured inhibition at 1 µM.
50%

Annotate the compound CC(C)(C)CCN1CCC2(CC1)CC2NC(=O)c1cncc(C(F)(F)F)c1 (stereo not drawn) [Example 26] with its measured inhibition at 1 µM.
64%

Annotate the compound CC(C)(C)CCN1CCC2(CC1)CC2NC(=O)c1cccc(C(F)(F)F)c1 (stereo not drawn) [Example 29] with its measured inhibition at 1 µM.
69%

Annotate the compound O=C(Nc1nnc(-c2ccccc2)o1)c1cnccn1 [Example 124] with its measured inhibition at 1 µM.
7.1%

Annotate the compound O=C(CN1CCC(CNC(=O)c2ccc(O)cc2)CC1)Nc1ccccc1 [Example 102] with its measured inhibition at 1 µM.
47%

Annotate the compound O=C(N[C@@H]1CCC12CCN(CCc1ccccc1)CC2)c1ccccc1 [Example 111] with its measured inhibition at 1 µM.
30%

Annotate the compound COc1cc(OC)cc(C(=O)NC2CC23CCN(CCC(C)(C)C)CC3)c1 (stereo not drawn) [Example 33] with its measured inhibition at 1 µM.
63%
